Values were extracted from ChEMBL document CHEMBL4699580.

# System: HeLa
# protocol-details: Cytotoxicity against human HeLa cells assessed as reduction in cell viability after 24 hrs by MTT assay
# Type: functional, cell-based
measure-name: IC50 (µM)

| chemical-structure | measure-name | number |
| --- | --- | --- |
| CC(C)=C[C@H]1C[C@H](C)[C@]2(CC[C@]3(C)C[C@@H]4C(C)=CC(=O)/C4=C(\CO)C(=O)C[C@H]32)O1 | IC50 | 10 |
| CC1=CC(=O)[C@H]2/C(C=O)=C\C[C@@H]3[C@](C)(CC[C@]3(O)[C@@H](C)CCCC(C)(C)O)C[C@H]12 | IC50 | 10 |
